Assayed System: human PPARγ LBD bound to Gal4 DBD (Homo sapiens)
Sequence (P37231 238-503 limits assumed): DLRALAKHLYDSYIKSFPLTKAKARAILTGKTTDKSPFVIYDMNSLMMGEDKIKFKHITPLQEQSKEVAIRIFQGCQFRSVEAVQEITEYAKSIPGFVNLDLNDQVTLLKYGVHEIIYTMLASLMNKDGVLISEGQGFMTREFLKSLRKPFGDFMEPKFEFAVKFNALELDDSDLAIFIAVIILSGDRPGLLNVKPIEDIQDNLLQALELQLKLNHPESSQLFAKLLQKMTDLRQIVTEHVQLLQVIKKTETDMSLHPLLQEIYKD
Test Description: PPARγ transfection luciferase reporter assay in HepG2 cells
Stated Conditions: HepG2, 24 hours exposure
Observation Type: pEC50
Recall that pEC50 is obtained by taking minus log10 of the concentration measured in molar.

Given the entry CCc1nc2c(C)cc(COC(C)(C)C)nc2n1[C@H]1CCc2cc(-c3ccccc3-c3nnn[nH]3)ccc21 [Example 5] , what pEC50 was observed with human PPARγ LBD bound to Gal4 DBD (Homo sapiens)?
6.54

Notebook: pull reported pEC50 for human PPARγ LBD bound to Gal4 DBD (Homo sapiens), entry CCc1nc2c(C)cc(CCC(C)(C)O)nc2n1[C@H]1CCc2cc(-c3ccccc3-c3nnn[nH]3)ccc21 [Example 53]
6.67

# get_value(readout= pEC50, system= human PPARγ LBD bound to Gal4 DBD (Homo sapiens)) for CCCc1nc2c(C)cc(CCC(C)O)nc2n1[C@H]1CCc2cc(-c3ccccc3-c3nnn[nH]3)ccc21 (stereo partly shown) [Example 49]
6.09

What measured pEC50 is associated with CCc1nc2c(C)cc(CC[C@@H](O)CC)nc2n1[C@H]1CCc2cc(-c3ccccc3-c3nnn[nH]3)ccc21 [Example 46] on human PPARγ LBD bound to Gal4 DBD (Homo sapiens)?
6.77

Fill in the recorded pEC50 for this compound, with human PPARγ LBD bound to Gal4 DBD (Homo sapiens) as test system: CCc1nc2c(C)cc(Cn3nc(C)cc3C)nc2n1[C@H]1CCc2cc(-c3ccccc3-c3nnn[nH]3)ccc21 [Example 67]
6.96

Reported pEC50 for human PPARγ LBD bound to Gal4 DBD (Homo sapiens), given CCc1nc2c(C)cc(CC3CCCCC3=O)nc2n1[C@H]1CCc2cc(-c3ccccc3-c3nnn[nH]3)ccc21 (stereo partly shown) [Example 63] ?
6.53

What pEC50 appears in the records for this compound with human PPARγ LBD bound to Gal4 DBD (Homo sapiens)? CCc1nc2c(C)cc(Cc3ccccc3)nc2n1[C@H]1CCc2cc(-c3ccccc3-c3nnn[nH]3)ccc21 [Example 1]
7.05

Lab request: please report pEC50 under test system human PPARγ LBD bound to Gal4 DBD (Homo sapiens) for CCc1nc2c(C)cc(CC(C)=O)nc2n1[C@H]1CCc2cc(-c3ccccc3-c3nnn[nH]3)ccc21 [Example 14]
6.39

Give pEC50 (human PPARγ LBD bound to Gal4 DBD (Homo sapiens)) of the following compound: C=CCC(O)Cc1cc(C)c2nc(CC)n([C@H]3CCc4cc(-c5ccccc5-c5nnn[nH]5)ccc43)c2n1 (stereo partly shown) [Example 20]
7.15

For the record CCc1nc2c(C)cc(CCc3ccccc3C)nc2n1[C@H]1CCc2cc(-c3ccccc3-c3nnn[nH]3)ccc21 [Example 28] , what value of pEC50 is listed for human PPARγ LBD bound to Gal4 DBD (Homo sapiens)?
6.48

Identify the measured pEC50 of CCc1nc2c(C)cc(CC[C@H](C)O)nc2n1[C@H]1CCc2cc(-c3ccccc3-c3nnn[nH]3)ccc21 [Example 36] for human PPARγ LBD bound to Gal4 DBD (Homo sapiens).
6.67

Give pEC50 (human PPARγ LBD bound to Gal4 DBD (Homo sapiens)) of the following compound: CCc1nc2c(C)cc(CCC(O)CC)nc2n1[C@H]1CCc2cc(-c3ccccc3-c3nnn[nH]3)ccc21 (stereo partly shown) [Example 44]
6.32

Could you share what pEC50 was measured for CCc1nc2c(C)cc(CCCn3cccn3)nc2n1[C@H]1CCc2cc(-c3ccccc3-c3nnn[nH]3)ccc21 [Example 33] , tested on human PPARγ LBD bound to Gal4 DBD (Homo sapiens)?
6.40

I'm curious: which pEC50 was measured for CCc1nc2c(C)cc(CC(O)C3CC3)nc2n1[C@H]1CCc2cc(-c3ccccc3-c3nnn[nH]3)ccc21 (stereo partly shown) [Example 19] tested on human PPARγ LBD bound to Gal4 DBD (Homo sapiens)?
6.98

Which pEC50 is reported with human PPARγ LBD bound to Gal4 DBD (Homo sapiens) for this entry: CCc1nc2c(C)cc(Cc3ccccn3)nc2n1[C@H]1CCc2cc(-c3ccccc3-c3nnn[nH]3)ccc21 [Example 2] ?
6.98

Test system human PPARγ LBD bound to Gal4 DBD (Homo sapiens); read-out pEC50; what value for CCc1nc2c(C)cc(CCC3CC3)nc2n1[C@H]1CCc2cc(-c3ccccc3-c3nnn[nH]3)ccc21 [Example 59] ?
6.67

GET /values?readout=pEC50&system=human PPARγ LBD bound to Gal4 DBD (Homo sapiens)&item= CCc1nc2c(C)cc(CC(O)CC(C)C)nc2n1[C@H]1CCc2cc(-c3ccccc3-c3nnn[nH]3)ccc21 (stereo partly shown) [Example 18]
7.07

What value of pEC50 on human PPARγ LBD bound to Gal4 DBD (Homo sapiens) does CCc1nc2c(C)cc(CCc3ccccc3)nc2n1[C@H]1CCc2cc(-c3ccccc3-c3nnn[nH]3)ccc21 [Example 30] have?
6.80

Please tell me: pEC50 of CCc1nc2c(C)cc(CCCO)nc2n1[C@H]1CCc2cc(-c3ccccc3-c3nnn[nH]3)ccc21 [Example 47] , system human PPARγ LBD bound to Gal4 DBD (Homo sapiens)?
6.26

Kindly state the measured pEC50 obtained for CCc1nc2c(C)cc(CC(C)O)nc2n1[C@H]1CCc2cc(-c3ccccc3-c3nnn[nH]3)ccc21 (mixture of isomers) [Example 15] with human PPARγ LBD bound to Gal4 DBD (Homo sapiens).
7.07

Enter reported pEC50 observed with human PPARγ LBD bound to Gal4 DBD (Homo sapiens) for CCc1nc2c(C)cc(CCc3ccccn3)nc2n1[C@H]1CCc2cc(-c3ccccc3-c3nnn[nH]3)ccc21 [Example 25]
6.74

Form entry - test system: human PPARγ LBD bound to Gal4 DBD (Homo sapiens); read-out: pEC50; compound: CCc1nc2c(C)cc(CC(C)(C)O)nc2n1[C@H]1CCc2cc(-c3ccccc3-c3nnn[nH]3)ccc21 [Example 16]
6.60

pEC50 of CCCc1nc2c(C)cc(CCC(C)(C)O)nc2n1[C@H]1CCc2cc(-c3ccccc3-c3nnn[nH]3)ccc21 [Example 35] on human PPARγ LBD bound to Gal4 DBD (Homo sapiens)?
6.41

Give recorded pEC50 with human PPARγ LBD bound to Gal4 DBD (Homo sapiens) for the following compound: CCc1nc2c(C)cc(CCC3(O)CCCCC3)nc2n1[C@H]1CCc2cc(-c3ccccc3-c3nnn[nH]3)ccc21 [Example 52]
6.54

Please tell me: pEC50 of CCc1nc2c(C)cc(C(C)(C)OC)nc2n1[C@H]1CCc2cc(-c3ccccc3-c3nnn[nH]3)ccc21 [Example 17] , system human PPARγ LBD bound to Gal4 DBD (Homo sapiens)?
7.19

Provide value of pEC50 for this record tested with human PPARγ LBD bound to Gal4 DBD (Homo sapiens): CCc1nc2c(C)cc(CCC(C)(O)C(C)(C)C)nc2n1[C@H]1CCc2cc(-c3ccccc3-c3nnn[nH]3)ccc21 (stereo partly shown) [Example 68]
7.35

Request body: readout pEC50, system human PPARγ LBD bound to Gal4 DBD (Homo sapiens), query CCc1nc2c(C)cc(CCC(C)(O)CC(C)C)nc2n1[C@H]1CCc2cc(-c3ccccc3-c3nnn[nH]3)ccc21 (stereo partly shown) [Example 69] . Return the value.
7.52

Entry CCc1nc2c(C)cc(CC[C@@](C)(O)C(C)C)nc2n1[C@H]1CCc2cc(-c3ccccc3-c3nnn[nH]3)ccc21 [Example 55] , system human PPARγ LBD bound to Gal4 DBD (Homo sapiens): what pEC50 was measured?
6.82

====

For each record, write down the corresponding pIC50.
Assayed System: Human recombinant AT1 receptor (Homo sapiens)
Construct: purchased
Sequence (P30556 whole entry): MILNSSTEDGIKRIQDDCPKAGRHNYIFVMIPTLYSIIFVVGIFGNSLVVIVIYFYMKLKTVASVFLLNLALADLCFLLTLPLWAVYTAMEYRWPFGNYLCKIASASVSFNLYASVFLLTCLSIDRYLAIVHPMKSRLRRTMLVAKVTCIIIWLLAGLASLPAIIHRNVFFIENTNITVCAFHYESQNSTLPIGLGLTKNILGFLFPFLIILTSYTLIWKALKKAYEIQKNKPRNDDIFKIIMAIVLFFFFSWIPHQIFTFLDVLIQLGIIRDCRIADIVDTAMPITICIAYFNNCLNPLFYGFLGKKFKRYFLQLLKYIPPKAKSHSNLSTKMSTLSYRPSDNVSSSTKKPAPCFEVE
Test Description: AT1 receptor radioligand binding (flashplate)
Stated Conditions: 125I Sar1,Ile8-Angiotensin II radioligand
Friendly reminder that pIC50 comes from taking -log10 of the concentration in mol/L.

For the compound shown here, CCc1nc2c(C)cc(CCCc3cccnc3)nc2n1[C@H]1CCc2cc(-c3ccccc3-c3nnn[nH]3)ccc21 , give the reported pIC50.
8.68

Recorded pIC50 of CCc1nc2c(C)cc(CC[C@@H](O)C(C)C)nc2n1[C@H]1CCc2cc(-c3ccccc3-c3nnn[nH]3)ccc21 , please.
8.60

Value lookup for pIC50; key = CCc1nc2c(C)cc(CCc3cccnc3)nc2n1[C@H]1CCc2cc(-c3ccccc3-c3nnn[nH]3)ccc21
8.68

Fill in: pIC50 of CCc1nnc(Cc2cc(C)c3nc(CC)n([C@H]4CCc5cc(-c6ccccc6-c6nnn[nH]6)ccc54)c3n2)o1 is ___
8.85

Which pIC50 reading was recorded for the compound CCc1nc2c(C)cc(Cn3nccn3)nc2n1[C@H]1CCc2cc(-c3ccccc3-c3nnn[nH]3)ccc21 ?
8.22

Could you share which pIC50 value was measured for CCc1nc2c(C)cc(CC(O)C3CC3)nc2n1[C@H]1CCc2cc(-c3ccccc3-c3nnn[nH]3)ccc21 (stereo partly shown) ?
8.14

Consider the compound shown here: CCc1nc2c(C)cc(CCC3CC3)nc2n1[C@H]1CCc2cc(-c3ccccc3-c3nnn[nH]3)ccc21 What is its recorded pIC50?
8.54

I'd like to know its pIC50. The compound in question is CCc1nc2c(C)cc(CC[C@@H](O)CC)nc2n1[C@H]1CCc2cc(-c3ccccc3-c3nnn[nH]3)ccc21
8.92

# pIC50 lookup, item CCc1nc2c(C)cc(C3OC3(C)C)nc2n1[C@H]1CCc2cc(-c3ccccc3-c3nnn[nH]3)ccc21 (stereo partly shown)
8.66

Any idea what pIC50 was measured for CCc1nc2c(C)cc(/C=C/COC)nc2n1[C@H]1CCc2cc(-c3ccccc3-c3nnn[nH]3)ccc21 ?
8.32

Need pIC50, item CCc1nc2c(C)cc(CCCOC)nc2n1[C@H]1CCc2cc(-c3ccccc3-c3nnn[nH]3)ccc21
8.96

For the compound shown here, CCc1nc2c(C)cc(CC3CCCC3O)nc2n1[C@H]1CCc2cc(-c3ccccc3-c3nnn[nH]3)ccc21 (single isomer, unassigned) , give the reported pIC50.
8.64

What value of pIC50 has been reported for the following compound? CCc1nc2c(C)cc(Cc3ccccc3)nc2n1[C@H]1CCc2cc(-c3ccccc3-c3nnn[nH]3)ccc21
8.35

State the recorded pIC50 for this entry: CCc1nc2c(C)cc(CCC(O)c3cccnc3)nc2n1[C@H]1CCc2cc(-c3ccccc3-c3nnn[nH]3)ccc21 (stereo partly shown)
8.68

What value of measured pIC50 is listed for C=CCc1cc(C)c2nc(CC)n([C@H]3CCc4cc(-c5ccccc5-c5nnn[nH]5)ccc43)c2n1 ?
8.57

Given the compound CCc1nc2c(C)cc(CCCO)nc2n1[C@H]1CCc2cc(-c3ccccc3-c3nnn[nH]3)ccc21 , what is its reported pIC50?
8.89

// returns reported pIC50 for input CCCc1nc2c(C)cc(CCC(C)(C)O)nc2n1[C@H]1CCc2cc(-c3ccccc3-c3nnn[nH]3)ccc21
9.30

Item under review: CCc1nc2c(C)cc(CCc3ccccc3F)nc2n1[C@H]1CCc2cc(-c3ccccc3-c3nnn[nH]3)ccc21 . Reported pIC50?
8.00

Which pIC50 value belongs to CCCc1nc2c(C)cc(CC[C@H](C)O)nc2n1[C@H]1CCc2cc(-c3ccccc3-c3nnn[nH]3)ccc21 ?
9.05

// pIC50 lookup, key: CCc1nc2c(C)cc(CCO)nc2n1[C@H]1CCc2cc(-c3ccccc3-c3nnn[nH]3)ccc21 [Example 13a]
8.39

Query (compound): CCc1nc2c(C)cc(C(=O)CC(C)C)nc2n1[C@H]1CCc2cc(-c3ccccc3-c3nnn[nH]3)ccc21 ; field requested: pIC50
7.66

Which value of pIC50 has been reported for CCc1nc2c(C)cc(CCc3ccccc3C)nc2n1[C@H]1CCc2cc(-c3ccccc3-c3nnn[nH]3)ccc21 in the records?
8.66

Which measured pIC50 value corresponds to CCCc1nc2c(C)cc(CCC(C)O)nc2n1[C@H]1CCc2cc(-c3ccccc3-c3nnn[nH]3)ccc21 (stereo partly shown) ?
8.80

Can you look up the measured pIC50 of CCc1nc2c(C)cc([C@@H](O)C(C)C)nc2n1[C@H]1CCc2cc(-c3ccccc3-c3nnn[nH]3)ccc21 for me?
8.80

Dear colleague, I am looking for the recorded pIC50 of the following compound: CCc1nc2c(C)cc(CCc3ccc(OC)cc3)nc2n1[C@H]1CCc2cc(-c3ccccc3-c3nnn[nH]3)ccc21
8.70

Would you kindly share the measured pIC50 for CCc1nc2c(C)cc(CC(C)(C)O)nc2n1[C@H]1CCc2cc(-c3ccccc3-c3nnn[nH]3)ccc21 ?
8.54

Query: pIC50; subject: CCCc1nc2c(C)cc(CCC3(O)CCCC3)nc2n1[C@H]1CCc2cc(-c3ccccc3-c3nnn[nH]3)ccc21
9.00

Quick check: pIC50 of CCc1nc2c(C)cc(CC[C@H](C)O)nc2n1[C@H]1CCc2cc(-c3ccccc3-c3nnn[nH]3)ccc21 ?
8.92
